MEASURED TARGET: Endothelin-1 receptor (Rattus norvegicus, UniProt P26684)
Sequence (P26684 whole entry): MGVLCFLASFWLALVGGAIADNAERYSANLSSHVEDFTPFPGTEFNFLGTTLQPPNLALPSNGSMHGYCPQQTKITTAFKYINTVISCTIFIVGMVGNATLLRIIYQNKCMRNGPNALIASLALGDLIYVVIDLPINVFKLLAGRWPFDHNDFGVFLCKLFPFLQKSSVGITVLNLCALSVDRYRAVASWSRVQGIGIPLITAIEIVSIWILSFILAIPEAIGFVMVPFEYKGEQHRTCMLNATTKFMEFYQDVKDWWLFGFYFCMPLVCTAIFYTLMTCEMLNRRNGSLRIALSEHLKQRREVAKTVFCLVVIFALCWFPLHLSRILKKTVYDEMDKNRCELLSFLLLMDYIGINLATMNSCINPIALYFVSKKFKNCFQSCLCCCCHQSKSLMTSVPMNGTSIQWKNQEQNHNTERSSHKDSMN
EXPERIMENTAL PROTOCOL: Concentration required to inhibit 50% Et-1 binding to endothelin A receptor in rat A-10 cells.
pIC50: −log10 of the molar value.
Hi, to clarify the labels: Y covers pIC50 from 6 upward, N covers anything below 6.

Tell me whether pIC50 is at least 6 here: O=C(O)CC/C(=C/c1cccc(OCc2ccccc2)c1)c1ccccc1
N

hey, is pIC50 for this one >= 6? O=C(O)/C(=C/c1cc(OCc2ccsc2)ccc1[N+](=O)[O-])c1c(F)cccc1Cl
N

Determine whether measured pIC50 meets or exceeds 6 for Cc1ccccc1/C(=C\c1cc(OCc2ccsc2)ccc1C#N)CO
Y

Is the recorded value of pIC50 equal to or greater than 6 for this compound? O=C(O)CCC(Oc1cccc(OCc2ccccc2)c1)c1ccccc1 (stereo unspecified)
N

Is the recorded value of pIC50 equal to or greater than 6 for this compound? Cc1ccccc1/C(=C\c1cc(OCc2ccsc2)ccc1C#N)C(=O)O
Y

Is the recorded value of pIC50 equal to or greater than 6 for this compound? N#Cc1ccc(OCc2ccsc2)cc1/C=C(/C(=O)O)c1ccc2c(c1)OCO2
Y

Check if pIC50 >= 6 (inclusive). Item: O=C(O)/C(=C/c1cc(OCc2ccsc2)ccc1[N+](=O)[O-])c1ccccc1
Y

Is pIC50 for O=C(O)/C(=C/c1cc(OCc2ccccc2)ccc1[N+](=O)[O-])c1ccccc1 at or above 6?
Y

Reported pIC50 at or above 6? N#Cc1ccc(OCc2cccnc2)cc1/C=C(/C(=O)O)c1ccccc1
Y

Is the recorded value of pIC50 equal to or greater than 6 for this compound? O=[N+]([O-])c1ccc(OCc2ccsc2)cc1/C=C(/CO)c1ccccc1Cl
Y

Hello, I need to know if O=C(O)/C(=C/c1cccc(OCc2ccccc2)c1)c1ccccc1 has measured pIC50 not below 6. Thanks!
N

Test whether the compound N#Cc1ccc(OCc2ccsc2)cc1/C=C(/C(=O)O)c1ccccc1Cl records pIC50 of 6 or higher.
Y

Please tell me: is the compound O=C(O)/C(=C/c1cc(OCc2ccsc2)ccc1[N+](=O)[O-])c1ccccc1F at or over 6 in terms of pIC50?
Y

Threshold query (pIC50 >= 6) on OC/C(=C/c1cc(OCc2ccsc2)ccc1Br)c1ccccc1
N

====

Assign inhibition to each entry below.
MEASURED TARGET: Endothelin-1 receptor (Rattus norvegicus) (UniProt P26684)
Sequence (whole entry): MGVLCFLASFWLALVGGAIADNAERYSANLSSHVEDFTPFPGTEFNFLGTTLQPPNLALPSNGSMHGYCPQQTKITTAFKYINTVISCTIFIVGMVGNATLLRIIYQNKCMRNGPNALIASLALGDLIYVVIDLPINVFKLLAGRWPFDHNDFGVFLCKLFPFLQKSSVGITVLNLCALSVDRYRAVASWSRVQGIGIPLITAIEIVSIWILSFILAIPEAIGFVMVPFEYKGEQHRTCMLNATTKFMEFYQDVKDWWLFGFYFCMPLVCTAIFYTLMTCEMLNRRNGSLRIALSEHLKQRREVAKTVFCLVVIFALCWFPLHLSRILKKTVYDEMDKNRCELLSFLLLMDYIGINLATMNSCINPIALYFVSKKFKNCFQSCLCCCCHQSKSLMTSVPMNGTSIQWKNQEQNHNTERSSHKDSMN
EXPERIMENTAL PROTOCOL: Concentration required to inhibit 50% Et-1 binding to Endothelin A receptor in rat A-10 cells.
Type: cell-based
Design: concentration or dose not given beside the values
COND: A10; concentration not given here

Form field: reported inhibition of COc1ccc(/C(=C\c2cc(OCc3ccsc3)ccc2C#N)C(=O)O)cc1
< 20%

Entry COC/C(=C/c1cc(OCc2ccsc2)ccc1C#N)c1ccccc1C has what inhibition?
< 20%

Suppose we examine the compound COc1ccc(C#N)c(/C=C(/C(=O)O)c2ccccc2)c1 ; what inhibition value has been reported?
< 20%

Give the measured inhibition of Nc1ccc(OCc2ccsc2)cc1/C=C(/C(=O)O)c1ccccc1F .
< 20%

====

Assignment: determine reported pIC50 for the given molecules.
MEASURED TARGET: Endothelin-1 receptor (Rattus norvegicus, UniProt P26684)
EXPERIMENTAL PROTOCOL: Concentration required to inhibit 50% Et-1 binding to endothelin A receptor in rat A-10 cells.
Entry type: numeric. Quantity: pIC50, the -log10 of concentration in molar units.

Reported pIC50 for N#Cc1ccc(OCc2ccsc2)cc1/C=C(/CCC(=O)O)c1ccccc1 : what is it?
6.15

Would you mind telling me what pIC50 value was observed for N#Cc1ccc(OCc2ccsc2)cc1/C=C(/CO)c1ccccc1 ?
6.10

Entry N#Cc1ccc(OCc2ccc3c(c2)OCO3)cc1/C=C(/C(=O)O)c1ccccc1 : reported pIC50 = ?
5.89

Name the recorded pIC50 for COc1cccc(/C(=C\c2cc(OCc3ccsc3)ccc2C#N)C(=O)O)c1 .
5.96

Report pIC50 for O=[N+]([O-])c1ccc(OCc2ccsc2)cc1/C=C(/CO)c1ccccc1 please.
5.85

Quick one: pIC50 for O=C(O)/C(=C/c1cc(OCc2ccsc2)ccc1[N+](=O)[O-])c1ccccc1Cl ?
5.89

Could you tell me which pIC50 is on file for O=C(O)/C(=C/c1cc(OCc2ccsc2)ccc1Br)c1ccccc1 ?
6.15
